The measurements presented in this section are drawn from patent US20240299382A1.

Molecular target: LSD1 (Homo sapiens)
Construct: Cells were then lysed and subjected to Western blotting with antibodies against the indicated proteins; endogenous in cells; host or cells: MCF7
Test: Western blotting of protein levels in MCF7 cells
Assay type: cell-based
Conditions: MCF7 cells, indicated concentrations, 14 hours
Method: […] Cells were pretreated with the proteasomal inhibitor MG132 (MG, 3 μM) or the neddylation inhibitor MLN4924 (MLN, 1 μM) for 2 hours. Cells were then lysed and subjected to Western blotting with antibodies against the indicated proteins. The levels of RCOR1 were normalized against that of tubulin and shown as % of DMSO control. Cells were pretreated with the proteasomal inhibitor MG132 (MG, 3 μM) or the neddylation inhibitor MLN4924 (MLN, 1 μM) for 2 hours. […]
quantity: LSD1 protein level

# molecule, obs-value
measured = [
    ("Nc1ccccc1NC(=O)c1ccc(CNC(=O)OCc2cccnc2)cc1 [entinostat, reference compound]", "slightly reduced"),
    ("O=C(CCCCCCC(=O)Nc1ccccc1)NO [vorinostat, reference compound]", "slightly reduced"),
]
